Ref: paper PMC9331544

# method-summary: Alamar Blue cell viability/cytotoxicity assay
# Assay type: cell-based, human
# test-parameters: human; Caco-2, 48 h; read-out: IC50 (cytotoxicity)
recorded-metric: IC50 at 48 h

Fill in: IC50 at 48 h of O=C(O)CNCP(=O)(O)O [Glyphosate, N-phosphonomethyl-glycine] is ___ > 1000 µM

###

# method-summary: Alamar Blue cell viability/cytotoxicity assay
# Assay type: cell-based, human
# test-parameters: human, Caco-2 cells, Caco-2, 24 h exposure, mean ± SD (n = 4); read-out: IC50 of pesticide-induced cytotoxicity
# Source text: In this study, to assess the cytotoxic activity of GLY, IMD, and IMZ, human epithelial colorectal adenocarcinoma (Caco-2), cell lines service (CLS), (Eppelheim, Germany) and human hepatocellular carcinoma (HepG2) (ATCC, Rockville, Maryland, USA) cells were used. […] Detached cells were gently re-suspended with a Pasteur pipette and then a sample was counted using an automated cell counter (TC10™, BIORAD, Portugal). […]
recorded-metric: IC50 at 24 h (µM)
All answers are understood in µM, so give the number only.

Given the entry C=CCOC(Cn1ccnc1)c1ccc(Cl)cc1Cl (stereo not shown) , report its measured IC50 at 24 h. 254

###

# Test system: Caco-2 cells
# method-summary: Alamar Blue cell viability/cytotoxicity assay
# Assay type: cell-based, human
# test-parameters: Caco-2, 24 h exposure, mean ± SD (n = 4); read-out: IC50 of pesticide-induced cytotoxicity
# Description: In this study, to assess the cytotoxic activity of GLY, IMD, and IMZ, human epithelial colorectal adenocarcinoma (Caco-2), cell lines service (CLS), (Eppelheim, Germany) and human hepatocellular carcinoma (HepG2) (ATCC, Rockville, Maryland, USA) cells were used. […] Detached cells were gently re-suspended with a Pasteur pipette and then a sample was counted using an automated cell counter (TC10™, BIORAD, Portugal). […]
recorded-metric: IC50 (µM)
Enter your answer as a number in µM; do not include the unit.

Could you tell me which IC50 is on file for C=CCOC(Cn1ccnc1)c1ccc(Cl)cc1Cl (centres unmarked) ? 254

###

# method-summary: Alamar Blue cell viability/cytotoxicity assay
# Type: cell-based, human
# test-parameters: human; HepG2, 24 h; read-out: IC50 (cytotoxicity)
recorded-metric: IC50 at 24 h

# IC50 at 24 h lookup, item O=C(O)CNCP(=O)(O)O [Glyphosate, N-phosphonomethyl-glycine] > 1000 µM

###

# Tested on: HepG2 cells
# method-summary: Alamar Blue cell viability/cytotoxicity assay
# Assay type: cell-based, human
# test-parameters: HepG2, 48 h exposure, mean ± SD (n = 4); read-out: IC50 of pesticide-induced cytotoxicity
recorded-metric: IC50

Entry O=C(O)CNCP(=O)(O)O [Glyphosate, N-phosphonomethyl-glycine] has what IC50? > 1000 µM

###

# Tested on: HepG2 cells
# method-summary: Alamar Blue cell viability/cytotoxicity assay
# Assay type: cell-based, human
# test-parameters: HepG2, 24 h exposure, mean ± SD (n = 4); read-out: IC50 of pesticide-induced cytotoxicity
recorded-metric: IC50

// returns reported IC50 for input O=C(O)CNCP(=O)(O)O [Glyphosate, N-phosphonomethyl-glycine] > 1 mM

###

# method-summary: Alamar Blue cell viability/cytotoxicity assay
# Assay type: cell-based, human
# test-parameters: human, Caco-2 cells, Caco-2, 48 h exposure, mean ± SD (n = 4); read-out: IC50 of pesticide-induced cytotoxicity
recorded-metric: IC50 at 48 h (µM)
Answer format: numeric, µM implied, no suffix.

Look up IC50 at 48 h: C=CCOC(Cn1ccnc1)c1ccc(Cl)cc1Cl (stereo not shown) 187
